growth inhibition values by entry
# ASSAY_SUMMARY: NCI Yeast Anticancer Drug Screen. Data for the mec2-1 strain (AID 157)
# REPORTED_CONDITIONS: S. cerevisiae mec2-1 strain, at 50.0 µM (retest, dose inferred, filed as 5.0), active compounds read high
About 79,000 compounds went through this panel and 15% of them were active in at least one assay; those are over-represented in the sample as a whole.

COMPOUND	READOUT_UNIT	growth inhibition
CCCCC(CC)C(O)C(=O)O (configuration not stated)	%	27
Cc1ccc(C(=O)C(CCC#N)(CCC#N)CCC#N)cc1	%	-17
COc1cccc2c1C(=O)c1c(O)c3c(c(O)c1C2=O)C[C@@](O)(C(O)CO)C[C@@H]3OC1CC(N(Cc2ccccc2)Cc2ccccc2)C(O)C(C)O1 (some centres not stated)	%	98
CCCCC(=O)N/N=C(\C)[C@]1(O)Cc2c(O)c3c(c(O)c2[C@@H](OC2CC(N)C(O)C(C)O2)C1)C(=O)c1c(OC)cccc1C3=O (some centres not stated)	%	97
COc1ccc(Cc2coc3ccccc3c2=O)cc1OC	%	10
CCCCCCCCCCC[N+]1(Cc2ccccc2)CC2CCN(Cc3ccccc3)CC2C1 (configuration not stated)	%	100
CC(C)N(C(=O)C12C3C4C5(C#N)C3C1(C#N)C5C42I)C(C)C (configuration not stated)	%	22
CCN(CC)CCOc1ccc(-c2cc(-c3ccccc3)nc(N)n2)cc1	%	99
S=c1[nH]c2cc(-c3ccccc3)ccc2o1	%	98
CN1C(=S)C(=N)OC1c1ccccc1F (configuration not stated)	%	97
Cc1cc(OCCl)ccc1[N+](=O)[O-]	%	32
O=C1Nc2c(ccc(Cl)c2I)C1=O	%	99
